Source listed as the supplement of paper PMC9170038.

Tested on: MS2 coat protein
protocol: apparent KD of MS2 coat protein; designed switch direction (-1 OFF switch, 1 ON switch): 1; higher = weaker reporter binding
conditionDetails: Eterna round: R98; input ligand: FMN 200 uM

residueString | apparent KD of MS2 coat protein
GCUUGCGACGCAGGAUAUGGGUGCCUGAACACGAGGAUCACCCGUGUAGAGGAAGCGAAAAGCUCUCAGAAGGGCGUCGCAGGC [United States 6 - Jieux - Same State NG 2] | 19.8 nM
AAAUAAAAUAUAGGAUAUGGAAACAUGAGGAUCACCCAUGUAAAAUAAGAUAAAUAAUAAUAUAACCAGAAGGAUAAAAUAUAA [LRO003_SS NG 2] | 53.3 nM
CUCGUUGUCACAGGAUAUGCCGCCGGACAUGAGGAUCACCCAUGUACCCGCUUGAGAAAACUGCGGUAGAAGGGUGACUUAUAA [Erriisin] | 46 nM
UCACUCACGUUAGGAUAUGGAUCGGAAAACGAUCCAGAAGGAACCUGCAAACACGAGGAUCACCCGUGUUCCAAUAACGAGUGA [SameSame 5 - Jieux - Same State NG 1] | 24.7 nM
CAUGUCCACACAGGAUAUGCUGGACUUUGUCCAGCAGAAGGGUGAACAUGAGGAUCACCCAUGUAAAGGACAUGUAUAUUUAAU [Denovo 16] | 93.3 nM
AAAACAUGAGGAUCACCCAUGUAAUGAUCGGUUAAUAGAAGUGAGGAUAUGCUUAAAAUAAGGUAGCAGAAGGCACUGGGUACA [JR_SSNG3_Sub041] | 31.3 nM

###

Test system: MS2 coat protein
protocol: apparent KD of MS2 coat protein; designed switch direction (-1 OFF switch, 1 ON switch): -1; higher = weaker reporter binding
conditionDetails: Eterna round: R98; input ligand: FMN 200 uM
# apparent KD of MS2 coat protein listing for each entry below

residueString | apparent KD of MS2 coat protein
AAAAUAUAGGCAGGAUAUACAUGAAUAUAUAAUAUAAUAUAUAAUAUAACAUGAGGAUCACCCAUGUAGAAGGGCCAUAAUAAA [LRO028_Exclusion NG 2] | 0.0727 µM
AAAAUAAAGGCAGGAUAUACAUGAAUAAAUAAAAUAAAAUAAAAUAAAACAUGAGGAUCACCCAUGUAGAAGGGCCAAAAUAAA [LRO021_Exclusion NG 2] | 0.178 µM
CUGGUGAUGUAAGGAUAUGCUGAGGAAUACUCAGCAGAAGGUACAUGAGGAUCACCCAUGUAAAUGAAAGAUAAUAAACACCAG [Excusion NG 1/16-B1] | 0.0291 µM

###

Tested on: MS2 coat protein
protocol: apparent KD of MS2 coat protein; designed switch direction (-1 OFF switch, 1 ON switch): 1; higher = weaker reporter binding
conditionDetails: Eterna round: R98; input ligand: FMN 200 uM
Returns one of Fulfilled or Not fulfilled; Fulfilled when apparent KD of MS2 coat protein is >= 50 nM.

residueString | classAssignment
AUCAAUCACAUAGGAUAUAGAAUAUUAUAUUUUUACAUGAGGAUCACCCAUGUUUUAUUGGGAUUCUAGAAGGAUGAGUAAUAA [JR_SSNG2_Sub055Nu] | Fulfilled
UUUGGGAGCACAGGAUAUGGCACCUCGACGGCGCCAGAAGGGUGAUUCUGUUGGUGGCCACAUGAGGAUCACCCAUGUGCCUCC [Inerinusce] | Not fulfilled
UUUACAUGAGGAUCACCCAUGUUUUGAAAGAUUGGUUUAGGUGAGGAUAUACAUGAUAAUGAAUUGUAGAAGGCACUGGGUACA [JR_SSNG3_Sub029] | Not fulfilled
UCGAAGAAGCAAGGAUAUCAAUAUUAGAAAAGAUAAACAUGAGGAUCACCCAUGUAAAUAUGGAGUGAGAAGGUGCAAUAAUUU [JR_SSNG2_Sub098] | Fulfilled
GUAGCAUACCGAGGAUAUUCAUACCAUAAAUGGACAUGAGGAUCACCCAUGUGGCGAAAGCCUUGGGAGAAGGCGGAAUGCUAC [EliMod 3 - Jieux - Same State NG 2] | Not fulfilled

###

Test system: MS2 coat protein
protocol: apparent KD of MS2 coat protein; designed switch direction (-1 OFF switch, 1 ON switch): -1; higher = weaker reporter binding
conditionDetails: Eterna round: R98; input ligand: none
Collected apparent KD of MS2 coat protein values appear next to each entry.

residueString | unitsLabel | apparent KD of MS2 coat protein
GGUUGUUACGCAGGAUAUUGCCAACAGGCAGUAGGAUAUCCGAAAGGAGAAGGAUUGCCAACAGGCGAGAAGGGCGGGUUAACC [pwkr exNG2 2xF7 2FMN.10.6] | nM | 33.3
AUGACAGGCAGAGCGCAACGGCGAACAUGAGGAUCACCCAUGUAGGAUAUGCUACACAAAGUGUAGCAGAAGGACAUGCGACGC [Ex NG2 #85] | nM | 25.7
GUAUGACAAAGUCAUACCGCUUUGACAUGAGGAUCACCCAUGUAGGAUAUAUUAAUCAAAGAUUAAUAGAAGGACAUGUUUCUG [Ex NG2 #68] | nM | 94.6
ACAUGGAAGCGAGGAUAUGCGGCGGAAACGAACGCAGAAGGCGAAAAAAAAACUCGCAAAAACAUGAGGAUCACCCAUGUAAAA [AK-NGROCr2-ExNG1-4] | nM | 28.5
AUGCCGUGCAGAGCGCGACGGCGAACAUGAGGAUCACCCAUGUAGGAUAUACUACACAAAGUGUAGUAGAAGGACGUGCAACAA [Ex NG2 #97] | nM | 29.8

###

System: MS2 coat protein
protocol: apparent KD of MS2 coat protein; designed switch direction (-1 OFF switch, 1 ON switch): -1; higher = weaker reporter binding
conditionDetails: Eterna round: R98; input ligand: none
Could you label it rule met if measured apparent KD of MS2 coat protein is 30 nM or higher, and rule not met otherwise?

residueString | classAssignment
GCGUAAUUGAUCCUAUUUACCAACAUGAGGAUCACCCAUGUGCAGGAUAUGCUAAAGAUAGAUAAGCAGAAGGGCAAAUACCGC [JR_ExcNG3_Sub003] | rule met
AAAAUAAAGGCAGGAUAUACAUGAAUAAAUAAAAUAAAAUAAAAUAAAACAUGAGGAUCACCCAUGUAGAAGGGCCAAAAUAAA [LRO021_Exclusion NG 2] | rule met
UAUAUAAUAAGAGCUGGAAAACUCACAUGAGGAUCACCCAUGUAGGAUAUCAGCACGAUAAGUGCUGAGAAGGACAACCAGCUC [Denovo 73] | rule not met
AAAAUAUAGGCAGGAUAUACAUGAAUAUAUAAUAUAAUAUAUAAUAUAACAUGAGGAUCACCCAUGUAGAAGGGCCAUAAUAAA [LRO028_Exclusion NG 2] | rule met
GGAUGACAAAGUCAUCCUUAACGAACAUGAGGAUCACCCAUGUAGGAUAUGCUACACAAAGUGUAGCAGAAGGACAUGUGCCUU [Mat - Exclusion NG 3 - JL Mod - D88] | rule met
CUGGUGAUGUAAGGAUAUGCUGAGGAAUACUCAGCAGAAGGUACAUGAGGAUCACCCAUGUAAAUGAAAGAUAAUAAACACCAG [Excusion NG 1/16-B1] | rule not met

###

System: MS2 coat protein
protocol: apparent KD of MS2 coat protein; designed switch direction (-1 OFF switch, 1 ON switch): 1; higher = weaker reporter binding
conditionDetails: Eterna round: R98; input ligand: FMN 200 uM
y means recorded apparent KD of MS2 coat protein is 70 nM or above; n means it is below 70 nM.

residueString | system | classAssignment
AGAACAUGAGGAUCACCCAUGUGAAGGUCGGCGUAUAAGGGUGAGGAUAUGCUUAAAAUAAGGAAGCAGAAGGUGCUUGGUGCG [SameState #79 NG3] | MS2 coat protein | y
GGAGACCUCACAGGAUAUGCUGGACUUUGUCCAGCAGAAGGGUGUUUAACAUGAGGAUCACCCAUGUAGGUCUCCAAAUUUAAU [Denovo 60] | MS2 coat protein | n
CGCUGUAAUGCAGGAUAUGCAUUGGAUUACAAUGCAGAAGGGCGAUUACAUGAGGAUCACCCAUGUAUAAACAGUGAAGAAGAG [Hyphema mod 5] | MS2 coat protein | n
GCCAUCGUAUGAGGAUAUGGCACCGUUUCGGUGCCAGAAGGCAUGUCUUUUGACAUGAGGAUCACCCAUGUAGUUAAGAUGGCA [Pyrimidine booster 4] | MS2 coat protein | y
CCUGACACUUGAGGAUAUGCUCAGGAAUACUGAGCAGAAGGCAGGGAAACCUGAGGAUCACCCAGGUAAGUCAGGAAUAAUAAA [Same State NG1 - A3C, U17G Submission 2A] | MS2 coat protein | n

###

The reader will find reported apparent KD of MS2 coat protein values listed item by item below.
Test system: MS2 coat protein
protocol: apparent KD of MS2 coat protein; designed switch direction (-1 OFF switch, 1 ON switch): 1; higher = weaker reporter binding
conditionDetails: Eterna round: R98; input ligand: none

residueString | unitsLabel | apparent KD of MS2 coat protein
GGUCUGAUAUGAGGAUAUGCUCAGGAUAACUGAGCAGAAGGCAUGUGAAAACAUGAGGAUCACCCAUGUAUGAUCUACAGACCA [Same State NG1 - WT Aptamer 4D] | nM | 55.6
UUAUAAAAUAUAGGAUAUGGAAACAUGAGGAUCACCCAUGUAUGAUAAGAUAAAUUAUGAUAUAGCCAGAAGGAUACAAUAUAA [LRO010_SS NG 2] | nM | 32.9
CUAAUAUAGUGAGGAUAUGCACAGGAUCACCGUGUAGAAGGCAUCAGGUAGAAGGUGCAGAGGAUCACCCUGUAAGGAUAUACA [pwkr2 ssNG1 DX.5] | nM | 385
AAAACAUGAGGAUCACCCAUGUAAAGAUCGGUUAAUAAAAGUGAGGAUAUACAAAAUUUUAUAUAGUAGAAGGCACUGGGUACA [JR_SSNG3_Sub002] | nM | 28.3
GUAGCAUACCGAGGAUAUUCAUACCAUAAAUGGACAUGAGGAUCACCCAUGUGGCGAAAGCCUUGGGAGAAGGCGGAAUGCUAC [EliMod 3 - Jieux - Same State NG 2] | nM | 673
GCCAUCGUAUGAGGAUAUGGCACCGUUUCGGUGCCAGAAGGCAUGUCUUUUGACAUGAGGAUCACCCAUGUAGUUAAGAUGGCA [Pyrimidine booster 4] | nM | 637
